MEASURED ON: T1, human TIGIT over-expressed on cells (human, UniProt Q495A1 22-244)
T1 sequence: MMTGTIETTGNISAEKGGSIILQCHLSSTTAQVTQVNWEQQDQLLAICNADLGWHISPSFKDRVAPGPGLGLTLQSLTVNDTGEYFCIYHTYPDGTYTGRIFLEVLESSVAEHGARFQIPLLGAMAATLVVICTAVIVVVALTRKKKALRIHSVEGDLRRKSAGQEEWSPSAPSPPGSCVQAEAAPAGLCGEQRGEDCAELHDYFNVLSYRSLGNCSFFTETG
METHOD: cell-based or functional assay
Use y when the recorded luciferase signal in T cell activation, Bottom (best-fit) is no lower than 5; use n when it is lower.

Some entries whose results are on file:
Query: Check this binder for luciferase signal in T cell activation, Bottom (best-fit) at or above 5: 100C4E7D11 (antibody, V domains shown, Mouse monoclonal antibody; also called mouse anti-human TIGIT monoclonal antibody 100C4E7D11) VH: EVMLVESGGGLVKPGGSLKLSCAASGFTFSFYTMSWVRQTPEKRLEWVATISSGGGSTYYSDSVKGRFTISRDNAKNNLYLQMTSLRSEDTALYYCSRSLPVDYWGQGTTLTVSS VL: QIVLTQSPAIMSASLGERVTMTCTASSSVSSTYLHWYQQKPGSSPKLWIYSTSNLASGVPARFSGSGSGTSYSLTISSMEAEDAATYYCHLYHHSPYTFGGGTKLEIK
Result: y

Query: Reported luciferase signal in T cell activation, Bottom (best-fit) at or above 5? 92E9D4B4 (antibody, V domains shown, Mouse monoclonal antibody; also called mouse anti-human TIGIT monoclonal antibody 92E9D4B4) VH: EVMLVESGGGLVKPGGSLKLSCAASGFTFSFYTMSWVRQTPEKRLEWVATISGGGGDTYYPDNVKGRFTISRDNAKNNLYLQMSSLRSEDTALYYCARSLPVDFWGQGTTLTVSS VL: QIVLTQSPAIMSASLGERVTMTCTASSSVSSTYLHWYQQKPGSSPKFWIYSTSNMASGVPARFSGSGSGTSYSLTISSMEAEDAATYYCHYYHRSPYTFGGGTKLEIK
Result: n

Query: Answer whether luciferase signal in T cell activation, Bottom (best-fit) of 64G1E9B4 (antibody, V domains shown, Mouse monoclonal antibody; also called mouse anti-human TIGIT monoclonal antibody 64G1E9B4) VH: EVQLQQSGPELVKPGASVKISCKTSGYTFTEHVIHWVKQSHGKSLEWIGGFNPNHDGTIYNQIFRGKATLTVDKSSSTAYMELRSLTSEDSAVYFCTRAAKLLFAMDYWGQGTSVTVSS VL: DIVMTQSHKFMSTSIGDRVSITCKASQHVSNAVVWYQQKPGQSPKLLIYSPSYRFTGVPDRFTGSGSGTDFTFTISSVQAEDLAVYYCQQHYSTPWTFGGGTKLEIK is greater than or equal to 5.
Result: y

Query: API: above_or_equal(metric=luciferase signal in T cell activation, Bottom (best-fit), cutoff=5) for item 83G6H11C12 (antibody, V domains shown, Mouse monoclonal antibody; also called mouse anti-human TIGIT monoclonal antibody 83G6H11C12) VH: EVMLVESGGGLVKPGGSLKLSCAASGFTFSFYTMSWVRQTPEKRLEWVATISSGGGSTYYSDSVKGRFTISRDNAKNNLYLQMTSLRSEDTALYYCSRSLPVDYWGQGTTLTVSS VL: QIVLTQSPAIMSASLGERVTMTCTASSSVSSSYLHWYQQKPGSSPKLWIYSTSNLASGVPARFSGSGSGTSYSLTISSMEAEDAATYYCHLYHHSPYTFGGGTKLEIK
Result: y

Query: Check this binder for luciferase signal in T cell activation, Bottom (best-fit) at or above 5: 128E3G7F5 (antibody, V domains shown, Mouse monoclonal antibody; also called mouse anti-human TIGIT monoclonal antibody 128E3G7F5) VH: EVLLQQSGPELVKTGASVKISCKASGYSFTAYYMHWVKQSHGKSLEWIGYISCYNGATTYNQKFKGKATFTVDTSSTTAYMQFNSLTSEDSAVYYCARRVYYGYDEALVYWGQGTSVTVSS VL: DIVMTQSPSSLSVSAGEKVTMTCKSSQSLLNSGNQKNYLAWYQQKPGQPPKLLIYGASTRGSGVPDRFTGSGSGTDFTLTISSVQAEDLAVYYCQNDHSYPYTFGGGTKLEIK
Result: n

***
Query: Check this binder for luciferase signal in T cell activation, Bottom (best-fit) at or above 5: 121C2F10B5 (antibody, V domains shown, Mouse monoclonal antibody; also called mouse anti-human TIGIT monoclonal antibody 121C2F10B5) VH: EVQLVESGGDLVKPGGSLKLSCAASGFTFSTYGMSWVRQTPDKRLEWVATISSGGSYTYYPDSVKGRFTISRDNAKNTLYLQMSSLKSEDTAMYYCARQVHYFYAMDYWGQGTSVTVSS VL: DIQMTQSPASLSVSVGETVTITCRASENIYSNLAWYQQKQGKSPQVLVYAATNLADGVPSRFSGSRSGTQYSLKINSLQSEDFGSYYCQHFWDNAYTFGGGTKLEIK
Result: y
